- Read-out: E-selectin (Homo sapiens) (UniProt P16581)
- Sequence (P16581 whole entry, looked up): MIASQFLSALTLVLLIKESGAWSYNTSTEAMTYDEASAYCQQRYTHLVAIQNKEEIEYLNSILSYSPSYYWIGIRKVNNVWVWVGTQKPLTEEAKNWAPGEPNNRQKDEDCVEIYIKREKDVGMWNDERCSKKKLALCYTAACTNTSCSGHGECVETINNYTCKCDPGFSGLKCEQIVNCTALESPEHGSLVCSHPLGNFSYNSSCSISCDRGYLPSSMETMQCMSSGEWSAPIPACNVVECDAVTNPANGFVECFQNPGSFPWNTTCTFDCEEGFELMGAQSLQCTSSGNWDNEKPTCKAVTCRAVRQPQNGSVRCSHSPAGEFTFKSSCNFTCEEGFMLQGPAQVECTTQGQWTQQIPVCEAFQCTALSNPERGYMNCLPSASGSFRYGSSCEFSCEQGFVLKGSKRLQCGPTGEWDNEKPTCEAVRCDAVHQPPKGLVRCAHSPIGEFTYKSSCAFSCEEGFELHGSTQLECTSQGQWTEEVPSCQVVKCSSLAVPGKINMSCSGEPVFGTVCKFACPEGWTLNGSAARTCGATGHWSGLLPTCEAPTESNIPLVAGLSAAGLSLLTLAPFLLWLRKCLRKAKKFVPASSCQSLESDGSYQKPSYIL
- Assay info: BSK_LPS_Eselectin: BioMAP Diversity Plus: LPS Assay for Eselectin Biomarker Activity (AID 2283077)
- Experimental conditions: primary human HUVEC with PBMC; actives raise or lower the signal
Active and inactive are the calls of the source. Rule for the calls: active = hit-call score of the fitted dose curve at least 0.9, where 1 is the maximum; inactive = score below 0.9.
Labels: active, inactive

CCCCC(CC)COC(=O)c1ccccc1C(=O)OCC(CC)CCCC (stereo not drawn): inactive
O=C(O)COc1nc(Cl)c(Cl)cc1Cl: inactive
COc1cnc(OC)n2nc(NS(=O)(=O)c3c(OCC(F)F)cccc3C(F)(F)F)nc12: inactive
C#CCOS(=O)OC1CCCCC1Oc1ccc(C(C)(C)C)cc1 (stereo not drawn): active
COc1nc(C)nc(NC(=O)NS(=O)(=O)c2ccccc2Cl)n1: inactive
COc1nc(C)nc(NC(=O)NS(=O)(=O)c2ccccc2CCC(F)(F)F)n1: inactive
C=CCC1=C(C)[C@@H](OC(=O)[C@@H]2[C@@H](C=C(C)C)C2(C)C)CC1=O: active
CCCCNC(=O)n1c(NC(=O)OC)nc2ccccc21: inactive
COc1ccc(C(c2ccc(OC)cc2)C(Cl)(Cl)Cl)cc1: active
CNC(=S)S: active
CC1COC(Cn2cncn2)(c2ccc(Oc3ccc(Cl)cc3)cc2Cl)O1 (stereo not drawn): active
COC(=O)N(OC)c1ccccc1COc1ccn(-c2ccc(Cl)cc2)n1: active
CCCC1COC(Cn2cncn2)(c2ccc(Cl)cc2Cl)O1 (stereo not drawn): inactive

----------
- Study system: rat Neurokinin-1 Receptor (NK1), Tacr1 (gene 24807) (UniProt P14600)
- Sequence (P14600 whole entry, looked up): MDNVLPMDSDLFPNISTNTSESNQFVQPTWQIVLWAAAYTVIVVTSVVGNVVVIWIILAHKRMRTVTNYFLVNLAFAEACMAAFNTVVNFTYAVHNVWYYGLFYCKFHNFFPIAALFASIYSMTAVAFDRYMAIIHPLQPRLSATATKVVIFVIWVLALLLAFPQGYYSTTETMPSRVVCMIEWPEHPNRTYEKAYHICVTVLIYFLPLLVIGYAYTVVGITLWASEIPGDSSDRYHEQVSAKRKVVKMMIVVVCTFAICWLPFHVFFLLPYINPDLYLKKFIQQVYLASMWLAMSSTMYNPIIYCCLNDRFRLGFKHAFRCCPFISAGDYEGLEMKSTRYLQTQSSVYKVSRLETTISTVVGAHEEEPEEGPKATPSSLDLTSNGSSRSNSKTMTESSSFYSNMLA
- Assay info: NVS_GPCR_rNK1: NovaScreen (NVS) G Protein-Coupled Receptor Assay for rat Neurokinin-1 Receptor (NK1) (AID 2283309)
Records with an inconclusive call do not appear. The source made the active and inactive calls. How the source made its calls: active means hit-call score of the fitted dose curve at least 0.9, where 1 is the maximum; inconclusive means response in the unintended direction; inactive means score below 0.9.
Labels: active, inactive

CC1COC(Cn2cncn2)(c2ccc(Oc3ccc(Cl)cc3)cc2Cl)O1 (stereo unspecified): inactive
CO/C=C(/C(=O)OC)c1ccccc1Oc1cc(Oc2ccccc2C#N)ncn1: inactive
COC(=O)C(C)Oc1ccc(Oc2ccc(Cl)cc2Cl)cc1 (stereo unspecified): inactive
COc1ccc(C(c2ccc(OC)cc2)C(Cl)(Cl)Cl)cc1: inactive
C=CCC1=C(C)[C@@H](OC(=O)[C@@H]2[C@@H](C=C(C)C)C2(C)C)CC1=O: active
COc1nc(C)nc(NC(=O)NS(=O)(=O)c2ccccc2CCC(F)(F)F)n1: inactive

----------
- Assay info: BSK_3C_TissueFactor: BioMAP Diversity Plus: 3C Assay for Tissue Factor Biomarker Activity (AID 2282997)
- Experimental conditions: BioMAP 3C HUVEC, tissue factor biomarker readout; actives raise or lower the signal
Calls of active or inactive are those of the source. How the source made its calls: active means hit-call score of the fitted dose curve at least 0.9, where 1 is the maximum; inactive means score below 0.9.
Classes used: yes (1) (active), no (0) (inactive)

O=C(O)c1nc(Cl)ccc1Cl: no (0)
CC(C)C1(C)N=C(c2nc3ccccc3cc2C(=O)O)NC1=O (stereo not given): no (0)
O=C(O)COc1nc(Cl)c(Cl)cc1Cl: no (0)
COC(=O)C=C(C)OP(=O)(OC)OC: no (0)
CS/C(C)=N/OC(=O)N(C)SN(C)C(=O)O/N=C(\C)SC: yes (1)
CCOP(=S)(OCC)SCn1c(=O)oc2cc(Cl)ccc21: no (0)
COc1ccc(C(c2ccc(OC)cc2)C(Cl)(Cl)Cl)cc1: no (0)
CCNc1nc(Cl)nc(NC(C)C)n1: no (0)
COP(=S)(OC)Oc1nc(Cl)c(Cl)cc1Cl: no (0)
COC(=O)N(OC)c1ccccc1COc1ccn(-c2ccc(Cl)cc2)n1: no (0)
C=CCC1=C(C)[C@@H](OC(=O)[C@@H]2[C@@H](C=C(C)C)C2(C)C)CC1=O: yes (1)
CC(C)Oc1cc(-n2nc(C(C)(C)C)oc2=O)c(Cl)cc1Cl: no (0)
CCc1nn(C)c(C(=O)NCc2ccc(C(C)(C)C)cc2)c1Cl: yes (1)
CON(C)C(=O)Nc1ccc(Cl)c(Cl)c1: no (0)
COC(=O)C(C)Oc1ccc(Oc2ccc(Cl)cc2Cl)cc1 (stereo not given): no (0)
N#Cc1nn(-c2c(Cl)cc(C(F)(F)F)cc2Cl)c(N)c1S(=O)C(F)(F)F (stereo not given): no (0)
CCON=C(CC)C1=C(O)CC(c2c(C)cc(C)cc2C)CC1=O (stereo not given): no (0)
CN(C)C(=S)SSC(=S)N(C)C: yes (1)
COP(N)(=O)SC (stereo not given): no (0)
CCOC(=O)C(Cl)Cc1cc(-n2nc(C)n(C(F)F)c2=O)c(F)cc1Cl (stereo not given): no (0)
CC1COC(Cn2cncn2)(c2ccc(Oc3ccc(Cl)cc3)cc2Cl)O1 (stereo not given): yes (1)
CCCCOC(=O)c1ccccc1C(=O)OCCCC: no (0)
Cc1c(F)c(F)c(COC(=O)C2C(/C=C(\Cl)C(F)(F)F)C2(C)C)c(F)c1F (stereo not given): no (0)
CNC(=O)ON=CC(C)(C)SC: no (0)
CC1=C(C(=O)Nc2ccccc2)SCCO1: no (0)
